Cited source for all entries: the supplement of paper PMC10567573

Please respond with reported protein stability index for every item in the list.
B1: GAGE1 (parent)
chain: QPPEMIGPMRPEQFSDEVEPATPE

# Variants of: B1
# test: protein stability index of a GFP-peptide fusion (GPS, HEK-293T) (PSI 1-6); higher = more stable;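 note: lentivirally expressed fusions sorted by FACS into six bins by GFP to DsRed ratio, PSI derived from sequencing read proportions per bin multiplied by bin number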
# details: c terminus: a fixed tail appended
Answer as a number with no unit attached.

Lookup result for "E24W" ; measured protein stability index: 4.16

Lookup result for "E24I" ; measured protein stability index: 4.56

Lookup result for "E17N" ; measured protein stability index: 5.01

Lookup result for "E17W" ; measured protein stability index: 4.85

Lookup result for "S15M" ; measured protein stability index: 4.22

Lookup result for "Q13H" ; measured protein stability index: 5.45

Lookup result for "E4V" ; measured protein stability index: 5.41

Lookup result for "E12P" ; measured protein stability index: 5.73

Lookup result for "P2I" ; measured protein stability index: 4.28

Lookup result for "E19M" ; measured protein stability index: 4.83

Lookup result for "Q1I" ; measured protein stability index: 4.78

Lookup result for "T22K" ; measured protein stability index: 4.96

Lookup result for "P3H" ; measured protein stability index: 5.52

Lookup result for "E4Q" ; measured protein stability index: 5.68

Lookup result for "I6V" ; measured protein stability index: 5.79

Lookup result for "G7N" ; measured protein stability index: 5.91

Lookup result for "G7W" ; measured protein stability index: 5.73

Lookup result for "P2G" ; measured protein stability index: 5.6

Lookup result for "M5L" ; measured protein stability index: 4.55

Lookup result for "Q1H" ; measured protein stability index: 5.06

Lookup result for "E24P" ; measured protein stability index: 4.65

Lookup result for "M9T" ; measured protein stability index: 5.68

Lookup result for "S15C" ; measured protein stability index: 5.31

Lookup result for "Q13I" ; measured protein stability index: 5.6

Lookup result for "E12V" ; measured protein stability index: 5.83

Lookup result for "Q13E" ; measured protein stability index: 4.65

Lookup result for "P3W" ; measured protein stability index: 5.23

Lookup result for "V18G" ; measured protein stability index: 4.72

Lookup result for "P3M" ; measured protein stability index: 5.76

Lookup result for "E24F" ; measured protein stability index: 4.83

Lookup result for "V18W" ; measured protein stability index: 5.04

Lookup result for "R10S" ; measured protein stability index: 5.56

Lookup result for "F14T" ; measured protein stability index: 5.81

Lookup result for "E24A" ; measured protein stability index: 4.99

Lookup result for "Q1R" ; measured protein stability index: 5.04

Lookup result for "E4T" ; measured protein stability index: 5.56

Lookup result for "Q1M" ; measured protein stability index: 5.27

Lookup result for "M9P" ; measured protein stability index: 5.57

Lookup result for "E24D" ; measured protein stability index: 4.51

Lookup result for "P20D" ; measured protein stability index: 5.25

Lookup result for "Q13N" ; measured protein stability index: 5.33

Lookup result for "T22I" ; measured protein stability index: 4.66

Lookup result for "T22E" ; measured protein stability index: 5.2

Lookup result for "R10A" ; measured protein stability index: 5.17

Lookup result for "P3T" ; measured protein stability index: 5.57

Lookup result for "F14G" ; measured protein stability index: 5.68
